System: MKL-2
Test: qHTS assay to identify novel small-molecules to repurpose for Merkel cell carcinoma treatment (AID 1296009); also: nearly all actives have a fitted effect of over 60% in size
Conditions: MCC and control cell lines, CellTiter-Glo viability, 72 h; series mostly up to 46 µM
Results filed as inconclusive are left out. Active and inactive are the calls of the source. Calls follow the shape of the dose curve; as a rule, active = well fitted inhibition curve with a large enough effect; inconclusive = small, poorly fitted or top-dose-only effect; inactive = flat fitted curve, though single readings scatter.
The reply should name one outcome from active, inactive

Exercise: // param item: C=CCc1ccccc1OCC(O)CNC(C)C (configuration not stated) ; yields the recorded call
Key: inactive

Exercise: What is the recorded call for this molecule in the test? `CCCN1C[C@H](CSC)C[C@@H]2c3cccc4[nH]cc(c34)C[C@H]21`
Key: inactive

Exercise: Which outcome was assigned to `CCCCNc1ccc(C(=O)OCCN(C)C)cc1` in this test?
Key: inactive

Exercise: Recorded test outcome, item Nc1c2c(nc3ccccc13)CCCC2O (configuration not stated)
Key: inactive

Exercise: Any idea what this test logged for `CN=C(NC#N)NCCSCc1nc[nH]c1C` ?
Key: inactive

Exercise: Hey, what did the test say about CCc1c(C)[nH]c2c1C(=O)C(CN1CCOCC1)CC2 (configuration not stated) ?
Key: active

Exercise: Dear all, I need the recorded test outcome for `Cc1nc2ccccn2c(=O)c1CCN1CCC(C(=O)c2ccc(F)cc2)CC1` , thank you.
Key: inactive

Exercise: Query: recorded result category for `NC(=O)c1ncn([C@@H]2O[C@H](CO)[C@@H](O)[C@H]2O)c1O` in this test
Key: inactive

Exercise: Recorded test outcome, item `O=C1NCN(c2ccccc2)C12CCN(CCCC(c1ccc(F)cc1)c1ccc(F)cc1)CC2`
Key: active

Exercise: Please let me know the test result on file for `CN/C(=C\[N+](=O)[O-])NCCSCc1ccc(CN(C)C)o1` .
Key: inactive

Exercise: Returns: the outcome recorded for `C[N+](C)(C)CCOC(=O)CCC(=O)OCC[N+](C)(C)C` in this assay.
Key: inactive

Exercise: I would be grateful if you could indicate the recorded call for `CC(=O)OCC1=C(C(=O)O)N2C(=O)[C@@H](NC(=O)Cc3cccs3)[C@H]2SC1` .
Key: inactive

----------
Tested on: DIV14
Experiment: qHTS profiling for inhibitors of Plasmodium falciparum proliferation (AID 504749); also: nearly all actives have a fitted effect of over 60% in size
Settings: P. falciparum in erythrocytes, SYBR Green DNA, 72 h; series mostly up to 28.7 µM
Records with an inconclusive call do not appear. The source made the active and inactive calls. Calls follow the shape of the dose curve; as a rule, active = well fitted inhibition curve with a large enough effect; inconclusive = small, poorly fitted or top-dose-only effect; inactive = flat fitted curve, though single readings scatter.
// classify into label 1 = active, label 0 = inactive

Please review the entries below; each comes with its answer.
>>> label("CC(C)NNC(=O)c1ccncc1")
"label 0"
>>> label("Cc1nc2c([nH]1)c(=O)n(C)c(=O)n2Cc1ccco1")
"label 0"
>>> label("O=C(O)CN(CCOCCOCCN(CC(=O)O)CC(=O)O)CC(=O)O")
"label 0"
>>> label("C#CCN(C)CCCOc1ccc(Cl)cc1Cl")
"label 0"
>>> label("C[C@]12CCC(=O)C=C1CC[C@@H]1[C@@H]2CC[C@@]2(C)[C@H]1CC[C@]2(O)C(=O)CO")
"label 0"

Exercise: Field: outcome | Entry: `CCCC(C(=O)OCCN(CC)CC)(c1ccccc1)c1ccccc1`
Key: label 1

Exercise: Fill in: this test's call for `CC(=O)OCC1=C(C(=O)O)N2C(=O)[C@@H](NC(=O)Cc3cccs3)[C@H]2SC1` is ___
Key: label 0
